Test system: SiHa
Test: MTT antiproliferative assay, SiHa
Format: cell-based, human
Conditions: Homo sapiens, SiHa, 30 µM, 72 h
Assay endpoint: inhibition at 30 µM (%)

>>> df
                                   compound  study_system       assay_endpoint  rel  observed_value
0  C[C@@]12CC[C@@H]3c4c(cc(OCc5cn(Cc6ccccc6)nn5)cc4-c4ccc(Br)cc4)CC[C@H]3[C@@H]1CCC2=O [compound 16]          SiHa  inhibition at 30 µM    =            10.4
1  CCCCOC1(c2cc(=O)c3c(Oc4ccccc4)cc(O)cc3o2)C=CC(=O)C=C1 [17a]          SiHa  inhibition at 30 µM    =              95
2  C[C@@]12CC[C@@H]3c4c(cc(O)cc4-c4ccccc4)CC[C@H]3[C@@H]1CCC2=O [14a]          SiHa  inhibition at 30 µM    <              10
3  C[C@@]12CC[C@@H]3c4c(cc(O)cc4-c4ccc(Br)cc4)CC[C@H]3[C@@H]1CCC2=O [14b]          SiHa  inhibition at 30 µM    =            59.7

###

Tested on: HeLa
Experiment: MTT antiproliferative assay, HeLa
Type: cell-based, human
Conditions: Homo sapiens, HeLa, 30 µM, 72 h
Assay endpoint: inhibition at 30 µM

In [3]: df
Out[3]:
                                   compound       assay_endpoint  observed_value
0  CN(C)C(=O)Oc1cc2c(c(-c3ccccc3)c1)[C@H]1CC[C@@]3(C)C(=O)CC[C@H]3[C@@H]1CC2 [13a]  inhibition at 30 µM           59.9%
1  CN(C)C(=O)Oc1cc2c(c(-c3ccc(C(C)(C)C)cc3)c1)[C@H]1CC[C@@]3(C)C(=O)CC[C@H]3[C@@H]1CC2 [13c]  inhibition at 30 µM           98.6%
2  C[C@@]12CC[C@@H]3c4c(cc(O)cc4-c4ccccc4)CC[C@H]3[C@@H]1CCC2=O [14a]  inhibition at 30 µM             43%
3  CN(C)C(=O)Oc1cc2c(c(-c3ccc(Br)cc3)c1)[C@H]1CC[C@@]3(C)C(=O)CC[C@H]3[C@@H]1CC2 [13b]  inhibition at 30 µM           59.3%

###

System: MDA-MB-231
Test: MTT antiproliferative assay, MDA-MB-231
Type: cell-based, human
Settings: Homo sapiens, MDA-MB-231, 72 h, read-out: calculated IC50 MDA-MB-231
Protocol: We evaluated the cytotoxic activity of the newly synthesised arylated compounds 13–17 by the MTT assay[37] on a panel of human adherent cancer cell lines. The panel included breast (MCF-7 and MDA MB-231) and cervical (HeLa, SiHa and C33A) cancer cell lines differing in receptorial or HPV status. Tumour selectivity was determined on the NIH/3T3 mouse fibroblast cell line. […]
Assay endpoint: IC50 (µM)

                                   compound  observed_value
0  CCCCOC1(c2cc(=O)c3c(Oc4ccc(C(C)(C)C)cc4)cc(O)cc3o2)C=CC(=O)C=C1 [17c]            0.42
1  CCCCOC1(c2cc(=O)c3c(Oc4ccccc4)cc(O)cc3o2)C=CC(=O)C=C1 [17a]            0.72
2  CN(C)C(=O)Oc1cc2c(c(-c3ccc(C(C)(C)C)cc3)c1)[C@H]1CC[C@@]3(C)C(=O)CC[C@H]3[C@@H]1CC2 [13c]            9.09
3  CCCCOC1(c2cc(=O)c3c(Oc4ccc(Br)cc4)cc(O)cc3o2)C=CC(=O)C=C1 [17b]            0.73
4  CCCCOC1(c2cc(=O)c3c(O)cc(O)cc3o2)C=CC(=O)C=C1 [compound 10, 1′-O-butyl protoapigenone, reference compound]            1.06
5  CC(C)(C)c1ccc(-c2cc(O)cc3c2[C@H]2CC[C@@]4(C)C(=O)CC[C@H]4[C@@H]2CC3)cc1 [14c]            20.5
